- STUDY TARGET: human adenosine A2A receptor (Homo sapiens)
- Construct: expressed in transfected cells; host or cells: HEK293 cells infected with BacMam
- Sequence (P29274 whole entry): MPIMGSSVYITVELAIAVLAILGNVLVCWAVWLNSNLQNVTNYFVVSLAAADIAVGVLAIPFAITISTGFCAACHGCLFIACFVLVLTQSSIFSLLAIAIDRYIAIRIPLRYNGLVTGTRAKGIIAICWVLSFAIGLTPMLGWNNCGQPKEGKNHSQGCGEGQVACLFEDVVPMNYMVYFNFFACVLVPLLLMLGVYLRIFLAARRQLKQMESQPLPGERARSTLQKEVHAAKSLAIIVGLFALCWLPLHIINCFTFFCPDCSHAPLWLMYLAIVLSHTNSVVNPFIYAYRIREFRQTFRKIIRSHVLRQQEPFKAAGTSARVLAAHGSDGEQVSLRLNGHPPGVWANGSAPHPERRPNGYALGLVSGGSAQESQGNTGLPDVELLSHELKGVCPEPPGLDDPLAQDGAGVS
- ASSAY NOTES: Inhibition binding assay, human adenosine A2A receptor membranes, [3H]ZM241385
- MEASUREMENT PARAMETERS: 1 nM [3H]ZM241385, HEK293-hA2A membranes, 25° C., 1 h; IC50 converted to Ki with Cheng-Prusoff; read-out: A2A pKi (converted)
PROPERTY LABEL: Ki (µM)

# ENTRY SMILES, READING
measured = [
    ("Cc1cc(-c2c(-c3ccccc3)nc(N)n3c(=O)n(Cc4ccc(F)c(=O)[nH]4)nc23)cc(C)n1", 0.0251),
]

(I) COc1cc(-c2c(-c3ccccc3)nc(N)n3c(=O)n(Cc4ccc(F)c(N)n4)nc23)cc(CO)n1
(II) Cc1cc(-c2c(-c3ccc(C#N)cc3)nc(N)n3c(=O)n(CCC(F)(F)F)nc23)cc(C)n1
Task: Between I and II , which one shows the smaller Ki number? Please reply using the label of the selected record.
Result: I
(I: 0.000316 µM, II: 0.02 µM)
